System: Cryptococcus neoformans
Assay: Antifungal activity against Cryptococcus neoformans 90-26
Type: functional
Let's look at some molecules and their measured MIC.
QUANTITY KIND: MIC

MOLECULE: NC[C@H]1O[C@H](O[C@H]2[C@H](O)[C@@H](O[C@H]3O[C@H](CO)[C@@H](O)[C@H](N)[C@H]3O)[C@H](N)C[C@@H]2N)[C@H](O)[C@@H](O)[C@@H]1O [KANAMYCIN]
ENDPOINT RESULT: > 250 µg/mL

MOLECULE: CCCCCCCCS(=O)(=O)OC[C@H]1O[C@H](O[C@@H]2[C@@H](O)[C@H](O[C@H]3O[C@H](CN)[C@@H](O)[C@H](O)[C@H]3O)[C@@H](N)C[C@H]2N)[C@H](O)[C@@H](N)[C@@H]1O
ENDPOINT RESULT: 3.9 to 7.8 µg/mL

MOLECULE: CCC(C)n1ncn(-c2ccc(N3CCN(c4ccc(OCC5COC(Cn6cncn6)(c6ccc(Cl)cc6Cl)O5)cc4)CC3)cc2)c1=O (centres undefined) [ITRACONAZOLE]
ENDPOINT RESULT: 0.37 µg/mL

MOLECULE: OC(Cn1cncn1)(Cn1cncn1)c1ccc(F)cc1F [FLUCONAZOLE]
ENDPOINT RESULT: > 0.195 µg/mL

* * *

Test system: Escherichia coli
Assay: Antibacterial activity against Escherichia coli ATCC 25922 after 12 to 18 hrs
Assay type: functional
Let's look at some compounds and their measured MIC.

SMI: CCCCOC[C@H]1O[C@H](O[C@@H]2[C@@H](O)[C@H](O[C@H]3O[C@H](CN)[C@@H](O)[C@H](O)[C@H]3O)[C@@H](N)C[C@H]2N)[C@H](O)[C@@H](N)[C@@H]1OCCCC
MIC: ≥ 250 µg/mL
--
SMI: CCCCCCOC[C@H]1O[C@H](O[C@@H]2[C@@H](O)[C@H](O[C@H]3O[C@H](CN)[C@@H](O)[C@H](O)[C@H]3O)[C@@H](N)C[C@H]2N)[C@H](O)[C@@H](N)[C@@H]1OCCCCCC
MIC: ≥ 250 µg/mL
--
SMI: CCCCCCCO[C@H]1[C@H](N)[C@@H](O)[C@@H](O[C@@H]2[C@@H](O)[C@H](O[C@H]3O[C@H](CN)[C@@H](O)[C@H](O)[C@H]3O)[C@@H](N)C[C@H]2N)O[C@@H]1CO
MIC: ≥ 250 µg/mL

* * *

Test system: Escherichia coli
Assay: Antibacterial activity against Escherichia coli ATCC 25922 after 12 to 18 hrs
Type: functional
Let's look at some compounds and their measured MIC.
QUANTITY KIND: MIC (µg/mL)

SMI: CCCCO[C@H]1[C@H](N)[C@@H](O)[C@@H](O[C@@H]2[C@@H](O)[C@H](O[C@H]3O[C@H](CN)[C@@H](O)[C@H](O)[C@H]3O)[C@@H](N)C[C@H]2N)O[C@@H]1CO
RELATION OPERATOR: ≥
ENDPOINT RESULT: 250
//
SMI: CCCCCCCCOC[C@H]1O[C@H](O[C@@H]2[C@@H](O)[C@H](O[C@H]3O[C@H](CN)[C@@H](O)[C@H](O)[C@H]3O)[C@@H](N)C[C@H]2N)[C@H](O)[C@@H](N)[C@@H]1OCCCCCCCC
RELATION OPERATOR: ≥
ENDPOINT RESULT: 250
//
SMI: CCCCCCCOC[C@H]1O[C@H](O[C@@H]2[C@@H](O)[C@H](O[C@H]3O[C@H](CN)[C@@H](O)[C@H](O)[C@H]3O)[C@@H](N)C[C@H]2N)[C@H](O)[C@@H](N)[C@@H]1OCCCCCCC
RELATION OPERATOR: =
ENDPOINT RESULT: 125
//
SMI: CCCCCCO[C@H]1[C@H](N)[C@@H](O)[C@@H](O[C@@H]2[C@@H](O)[C@H](O[C@H]3O[C@H](CN)[C@@H](O)[C@H](O)[C@H]3O)[C@@H](N)C[C@H]2N)O[C@@H]1CO
RELATION OPERATOR: ≥
ENDPOINT RESULT: 250
//
SMI: CCCCCCCCCOC[C@H]1O[C@H](O[C@@H]2[C@@H](O)[C@H](O[C@H]3O[C@H](CN)[C@@H](O)[C@H](O)[C@H]3O)[C@@H](N)C[C@H]2N)[C@H](O)[C@@H](N)[C@@H]1OCCCCCCCCC
RELATION OPERATOR: =
ENDPOINT RESULT: 16

* * *

Test system: Cryptococcus neoformans
Assay: Antifungal activity against Cryptococcus neoformans 94-2586
Type: functional
QUANTITY KIND: MIC (µg/mL)

COMPOUND: NC[C@H]1O[C@H](O[C@H]2[C@H](O)[C@@H](O[C@H]3O[C@H](CO)[C@@H](O)[C@H](N)[C@H]3O)[C@H](N)C[C@@H]2N)[C@H](O)[C@@H](O)[C@@H]1O [KANAMYCIN]
ASSAY TARGET: Cryptococcus neoformans
QUANTITY KIND: MIC
RELATION OPERATOR: >
ENDPOINT RESULT: 125

COMPOUND: CCC(C)n1ncn(-c2ccc(N3CCN(c4ccc(OCC5COC(Cn6cncn6)(c6ccc(Cl)cc6Cl)O5)cc4)CC3)cc2)c1=O (centres undefined) [ITRACONAZOLE]
ASSAY TARGET: Cryptococcus neoformans
QUANTITY KIND: MIC
RELATION OPERATOR: =
ENDPOINT RESULT: 0.06

COMPOUND: OC(Cn1cncn1)(Cn1cncn1)c1ccc(F)cc1F [FLUCONAZOLE]
ASSAY TARGET: Cryptococcus neoformans
QUANTITY KIND: MIC
RELATION OPERATOR: =
ENDPOINT RESULT: 1.56

* * *

Let's look at some compounds and their measured MIC.
System: Candida albicans
Assay: Antifungal activity against Candida albicans B-311
Format: functional
QUANTITY KIND: MIC

COMPOUND: CCCCCCCCS(=O)(=O)OC[C@H]1O[C@H](O[C@@H]2[C@@H](O)[C@H](O[C@H]3O[C@H](CN)[C@@H](O)[C@H](O)[C@H]3O)[C@@H](N)C[C@H]2N)[C@H](O)[C@@H](N)[C@@H]1O
ENDPOINT RESULT: > 7.8 µg/mL
//
COMPOUND: OC(Cn1cncn1)(Cn1cncn1)c1ccc(F)cc1F [FLUCONAZOLE]
ENDPOINT RESULT: > 25 µg/mL
//
COMPOUND: CCC(C)n1ncn(-c2ccc(N3CCN(c4ccc(OCC5COC(Cn6cncn6)(c6ccc(Cl)cc6Cl)O5)cc4)CC3)cc2)c1=O (centres undefined) [ITRACONAZOLE]
ENDPOINT RESULT: 16 to 32 µg/mL
//
COMPOUND: NC[C@H]1O[C@H](O[C@H]2[C@H](O)[C@@H](O[C@H]3O[C@H](CO)[C@@H](O)[C@H](N)[C@H]3O)[C@H](N)C[C@@H]2N)[C@H](O)[C@@H](O)[C@@H]1O [KANAMYCIN]
ENDPOINT RESULT: > 250 µg/mL

* * *

Let's look at some molecules and their measured MIC.
System: Cryptococcus neoformans
Experiment: Antifungal activity against Cryptococcus neoformans H99
Format: functional
Conditions: var grubii H99

MOLECULE: CCC(C)n1ncn(-c2ccc(N3CCN(c4ccc(OCC5COC(Cn6cncn6)(c6ccc(Cl)cc6Cl)O5)cc4)CC3)cc2)c1=O (centres undefined)
MIC: 1.56 µg/mL
//
MOLECULE: OC(Cn1cncn1)(Cn1cncn1)c1ccc(F)cc1F
MIC: 1.56 µg/mL
//
MOLECULE: NC[C@H]1O[C@H](O[C@H]2[C@H](O)[C@@H](O[C@H]3O[C@H](CO)[C@@H](O)[C@H](N)[C@H]3O)[C@H](N)C[C@@H]2N)[C@H](O)[C@@H](O)[C@@H]1O
MIC: > 125 µg/mL
//
MOLECULE: CCCCCCCCS(=O)(=O)OC[C@H]1O[C@H](O[C@@H]2[C@@H](O)[C@H](O[C@H]3O[C@H](CN)[C@@H](O)[C@H](O)[C@H]3O)[C@@H](N)C[C@H]2N)[C@H](O)[C@@H](N)[C@@H]1O
MIC: 3.9 to 7.8 µg/mL

* * *

Test system: Diutina rugosa
Experiment: Antifungal activity against Candida rugosa 95-967
Assay type: functional

MOLECULE: OC(Cn1cncn1)(Cn1cncn1)c1ccc(F)cc1F [FLUCONAZOLE]
RELATION OPERATOR: >
MIC [µg/mL]: 0.78
//
MOLECULE: CCC(C)n1ncn(-c2ccc(N3CCN(c4ccc(OCC5COC(Cn6cncn6)(c6ccc(Cl)cc6Cl)O5)cc4)CC3)cc2)c1=O (centres undefined) [ITRACONAZOLE]
RELATION OPERATOR: =
MIC [µg/mL]: 0.12
//
MOLECULE: CCCCCCCCS(=O)(=O)OC[C@H]1O[C@H](O[C@@H]2[C@@H](O)[C@H](O[C@H]3O[C@H](CN)[C@@H](O)[C@H](O)[C@H]3O)[C@@H](N)C[C@H]2N)[C@H](O)[C@@H](N)[C@@H]1O
RELATION OPERATOR: =
MIC [µg/mL]: 15.6
//
MOLECULE: NC[C@H]1O[C@H](O[C@H]2[C@H](O)[C@@H](O[C@H]3O[C@H](CO)[C@@H](O)[C@H](N)[C@H]3O)[C@H](N)C[C@@H]2N)[C@H](O)[C@@H](O)[C@@H]1O [KANAMYCIN]
RELATION OPERATOR: >
MIC [µg/mL]: 250
